B1: Membrane-associated guanylate kinase, WW and PDZ domain-containing protein 2, residues 601 to 682; numbered along this chain, Q86UL8 (parent)
chain: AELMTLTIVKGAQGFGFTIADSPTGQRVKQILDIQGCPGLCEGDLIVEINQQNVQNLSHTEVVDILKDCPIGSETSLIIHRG

Variants of: B1
Assay: abundance fitness (aPCA) (normalised: wild type 0, dead -1); higher = more abundant; growth selection in yeast, the domain comes from the species named
Conditions: Homo sapiens
test-readout: abundance fitness

T75P	-0.164
S22G	0.03
I31M	-0.084
E74H	0.241
V54I	-0.07
D44H	-0.79

Now look at this one.
Q. Supply measured abundance fitness of `I78H` in your reply.
A. -0.157
